target: glucose-6-phosphate dehydrogenase-6-phosphogluconolactonase (PfGluPho), Plasmodium falciparum 3D7; experiment: PfG6PD enzyme inhibitors, SAR follow-up, biochemical, fluorescence intensity (AID 588415); settings: recombinant PfG6PD, resazurin-diaphorase NADPH fluorescence
Activity calls are given as the source filed them.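 How the source made its calls: active means IC50 at or below 20 µM; inactive means the rest.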
experimentalEndpoint: IC50

Known IC50 results, listed for orientation:
>>> measured("Cc1cccc(C(=O)Nc2nnc(S(=O)(=O)N3CCCc4ccccc43)s2)c1")
"> 80 µM (inactive)"
>>> measured("COc1ccc(/C=C2/Sc3ccc(C(=O)NCCN4CCCCCC4)cc3NC2=O)cc1")
"> 80 µM (inactive)"
>>> measured("CCOc1ccc(C(=O)Nc2nnc(S(=O)(=O)N3CCCCCC3)s2)cc1")
"> 80 µM (inactive)"
>>> measured("O=C1Nc2cc(C(=O)NCCN3CCCCCC3)ccc2S/C1=C/c1ccccc1F")
"inactive"
>>> measured("CCN1CCCC1CNC(=O)c1ccc2c(c1)NC(=O)/C(=C/c1ccccc1F)S2 (stereo unspecified)")
"1.73 µM"

Entry "O=C(Nc1nnc(S(=O)(=O)N2CCCCCC2)s1)c1ccc(F)cc1" needs its IC50 filled in; supply it.
inactive

Item CCN1CCCC1CNC(=O)c1ccc2c(c1)N(Cc1ccccc1Cl)C(=O)c1ccccc1S2 (stereo unspecified) : provide IC50
> 80 µM (inactive)

Note down IC50 recorded for "O=C1Nc2cc(C(=O)NCCN3CCCCCC3)ccc2S/C1=C/c1ccccc1Cl"
inactive

In one line, give reported IC50 of the entry "O=C(Nc1nnc(S(=O)(=O)N2CCCCCC2)s1)c1cccc(Br)c1" .
7.35 µM

Retrieve IC50 measured for Cc1ccc(C(=O)Nc2nnc(S(=O)(=O)N3c4ccccc4CC3C)s2)cc1 (stereo unspecified) and print it.
> 80 µM (inactive)

Give me measured IC50, please, for this compound: CCN1CCCC1CNC(=O)c1ccc2c(c1)NC(=O)c1ccccc1S2 (stereo unspecified)
12.2 µM

Report IC50, nothing else, for this compound: "COc1ccc(C(=O)Nc2nnc(S(=O)(=O)N3CCCCCC3)s2)cc1OC"
> 80 µM (inactive)

Answer with the recorded IC50 of "O=C1Nc2cc(C(=O)NCCN3CCCC3)ccc2S/C1=C/c1ccccc1Cl" only.
11.1 µM

Specify measured IC50 for "Cc1cccc(C(=O)Nc2nnc(S(=O)(=O)N3CCC(C)CC3)s2)c1" .
13 µM

Report IC50, nothing else, for this compound: "O=C(Nc1nnc(S(=O)(=O)N2CCCc3ccccc32)s1)c1cccc(F)c1"
> 80 µM (inactive)

Using known records, supply IC50 for "O=C(Nc1nnc(S(=O)(=O)N2CCCCCC2)s1)C1CCCCC1"
> 80 µM (inactive)

Identify IC50 associated with the compound "CCCN(CCC)CCNC(=O)c1ccc2c(c1)NC(=O)/C(=C/c1ccccc1)S2"
> 80 µM (inactive)

Specify reported IC50 for the compound shown: CC1Cc2ccccc2N1S(=O)(=O)c1nnc(NC(=O)c2cccc(Br)c2)s1 (stereo unspecified)
> 80 µM (inactive)

----------
target: glucose-6-phosphate dehydrogenase-6-phosphogluconolactonase (PfGluPho), Plasmodium falciparum 3D7; assay: PfG6PD enzyme inhibitors, SAR follow-up, biochemical, fluorescence intensity (AID 588415); details: recombinant PfG6PD, resazurin-diaphorase NADPH fluorescence
The source made the active and inactive calls.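 How the source made its calls: active means IC50 at or below 20 µM; inactive means the rest.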
Hi! Could you answer with just one of these? 1.0 (active), 0.0 (inactive)

What did the test return for "O=C(Nc1nnc(S(=O)(=O)N2CCCCCC2)s1)c1cccc(Cl)c1" ?
1.0

Lab log entry: "O=C(Nc1nnc(S(=O)(=O)N2CCCCCC2)s1)c1ccccc1F" — outcome as called in the assay?
0.0

For this compound, state the assay outcome: "COc1cccc(C(=O)Nc2nnc(S(=O)(=O)N3CCCCCC3)s2)c1"
1.0

Check the results log: what was the call for "CN(C)CCNC(=O)c1ccc2c(c1)NC(=O)/C(=C\c1cccc(Cl)c1)S2" ?
0.0

What did this assay record as the result for "CCN(CC)CCNC(=O)c1ccc2c(c1)NC(=O)/C(=C\c1ccccc1Cl)S2" ?
1.0

Outcome logged for "CCN(CCNC(=O)c1ccc2c(c1)N(CC)C(=O)c1ccccc1S2)c1ccccc1" in this assay:
0.0

Recorded test outcome, item "CCN(CC)CCNC(=O)c1ccc2c(c1)NC(=O)/C(=C/c1ccccc1)S2"
1.0

// return assay outcome for "CCN(CCNC(=O)c1ccc2c(c1)NC(=O)c1ccccc1S2)c1ccccc1"
0.0

What was the test verdict on "Cc1ccccc1C(=O)Nc1nnc(S(=O)(=O)N2CCCc3ccccc32)s1" ?
0.0

Dear all, I need the recorded test outcome for CCN1CCCC1CNC(=O)c1ccc2c(c1)NC(=O)/C(=C\c1ccccc1F)S2 (stereo not given) , thank you.
1.0

----------
molecular target: glucose-6-phosphate dehydrogenase-6-phosphogluconolactonase (PfGluPho), Plasmodium falciparum 3D7; experiment: PfG6PD enzyme inhibitors, SAR follow-up, biochemical, fluorescence intensity (AID 588415); settings: recombinant PfG6PD, resazurin-diaphorase NADPH fluorescence
The source made the active and inactive calls.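 The calls were made as follows: active = IC50 at or below 20 µM; inactive = the rest.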
Tick one outcome: active, inactive

>>> qualitativelabel("CCN(CC)CCNC(=O)c1ccc2c(c1)N(Cc1cc(C)ccc1C)C(=O)c1ccccc1S2")
"inactive"
>>> qualitativelabel("CCC(C)N(CCNC(=O)c1ccc2c(c1)NC(=O)c1ccccc1S2)C1CCCCC1 (stereo not given)")
"active"

Assay result, entry "Cc1ccccc1C(=O)Nc1nnc(S(=O)(=O)N2CCCCCC2)s1" — outcome?
inactive

Field: outcome | Entry: CCN1CCCC1CNC(=O)c1ccc2c(c1)N(Cc1ccc(C(F)(F)F)cc1)C(=O)c1ccccc1S2 (stereo not given)
inactive

# lookup: test call for "COc1ccc(/C=C2/Sc3ccc(C(=O)NCCN(C)C)cc3NC2=O)cc1"
inactive

Dear colleague, could you share the recorded outcome for "CCN(CC)CCNC(=O)c1ccc2c(c1)NC(=O)/C(=C\c1ccccc1F)S2" when you have a moment?
active

Would you mind telling me which call this test gave "O=C(Nc1nnc(S(=O)(=O)N2CCOCC2)s1)c1cccc(F)c1" ?
inactive

Please indicate how the test categorized "CCN(CC)CCNC(=O)c1ccc2c(c1)NC(=O)/C(=C\c1ccc(OC)cc1)S2" .
inactive

Which result was noted for this molecule in the test: CC1Cc2ccccc2N1S(=O)(=O)c1nnc(NC(=O)c2cccc(F)c2)s1 (stereo not given)
inactive

How did this test come out for Cc1cccc(C(=O)Nc2nnc(S(=O)(=O)N3c4ccccc4CC3C)s2)c1 (stereo not given) ?
inactive

----------
biological target: glucose-6-phosphate dehydrogenase-6-phosphogluconolactonase (PfGluPho), Plasmodium falciparum 3D7; assay: PfG6PD enzyme inhibitors, SAR follow-up, biochemical, fluorescence intensity (AID 588415); conditions: recombinant PfG6PD, resazurin-diaphorase NADPH fluorescence
The source made the active and inactive calls.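 Rule for the calls: active = IC50 at or below 20 µM; inactive = the rest.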
experimentalEndpoint: IC50

Indicate the recorded IC50 value for this molecule: "Cc1ccc(C(=O)Nc2nnc(S(=O)(=O)N3CCCCCC3)s2)cc1"
> 80 µM (inactive)

State, in one line, measured IC50 of "CCN(CCNC(=O)c1ccc2c(c1)N(Cc1cc(C)ccc1C)C(=O)c1ccccc1S2)c1ccccc1"
> 80 µM (inactive)
